Experiment: Partition coefficient (logD7.4)
Assay type: physicochemical
Conditions: octanol/water, pH 7.4
Each entry below carries its recorded logD.

| smilesInput | logD |
| --- | --- |
| CC(C)c1nc(-c2cccnc2)c(-c2ccc(F)cc2)n1/C=C/[C@@H](O)C[C@@H](O)CC(=O)O | -0.43 |
| O=C(O)C[C@H](O)C[C@H](O)/C=C/n1c(C(F)(F)F)nc(-c2ccc(F)cc2)c1-c1ccc(F)cc1 | 0.73 |
| CC(C)c1c(-c2ccc(F)cc2)nc(-c2ccc(F)cc2)n1/C=C/[C@@H](O)C[C@@H](O)CC(=O)O | 0.83 |
| CNc1cccc(-c2nc(C(C)C)n(/C=C/[C@@H](O)C[C@@H](O)CC(=O)O)c2-c2ccc(F)cc2)c1 | -0.05 |
